testSystem: Recombinant Rhinovirus 3C protease (RVP) serotype-14 (Human rhinovirus 14)
Construct: Recombinant Rhinovirus 3C proteases from serotypes 14, 16, 2 or 89; made in house
Sequence (P03303 1538-1719): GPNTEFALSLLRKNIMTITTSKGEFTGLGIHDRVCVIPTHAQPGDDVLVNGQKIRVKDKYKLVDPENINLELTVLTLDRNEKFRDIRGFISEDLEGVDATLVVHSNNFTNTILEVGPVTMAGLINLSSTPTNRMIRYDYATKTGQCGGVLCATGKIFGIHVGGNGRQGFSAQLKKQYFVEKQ
protocolSummary: Inhibition of Rhinovirus Protease (fluorescence resonance energy transfer assay), serotype 14
Format: biochemical, human rhinovirus (HRV)
conditionContext: pH 7.6, read-out: kobs/I
measuredParameter: kinact/KI

Please review the entries below; each comes with its answer.
molecule: CCOC(=O)/C=C/[C@H](CCC(N)=O)NC(=O)[C@H](Cc1ccccc1)NC(=O)CNC(=O)OCc1ccccc1 [Compound 102]
kinact/KI: 3840 M⁻¹ s⁻¹
--
molecule: CCOC(=O)/C=C/[C@H](CCC(N)=O)NC(=O)[C@H](Cc1ccccc1)NC(=O)[C@H](CSc1ccccc1)NC(=O)OCc1ccccc1 [Compound 153]
kinact/KI: 141000 M⁻¹ s⁻¹

Exam item: Which kinact/KI value is on record for CCOC(=O)/C=C/[C@H](CCC(N)=O)NC(=O)[C@H](Cc1ccc(C)cc1)NC(=O)[C@@H](NC(=O)SC1CCCC1)C(C)C [Compound 183] ?
Marked response: 500000 M⁻¹ s⁻¹

----------
Test system: CVB-3
protocolSummary: Anticoxsackieviral HI-HeLa Cell Culture Assay (XTT dye reduction)
Type: cell-based, Coxsackie strain B-3 (CVB-3)
conditionContext: HI-HeLa cells infected with CVB-3, m.o.i. 0.08, one day
measuredParameter: pEC50
Interpret pEC50 as the negative base-10 log of the concentration measured in mol/L.

Please review the entries below; each comes with its answer.
mol: CC(C)C[C@H](NC(=O)OCc1ccccc1)C(=O)N[C@@H](Cc1ccccc1)C(=O)N[C@H](/C=C/C(=O)c1ccccc1)CCC(N)=O
pEC50: 5.00
//
mol: CCOC(=O)/C=C/[C@H](CCC(N)=O)NC(=O)[C@H](Cc1ccc(F)cc1)NC(=O)c1cc2c(OC)cccc2[nH]1
pEC50: 4.70
//
mol: CCOC(=O)/C=C/[C@H](CCC(N)=O)NC(=O)[C@H](Cc1ccccc1)NC(=O)[C@H](CC(C)C)NC(=O)OCc1ccccc1
pEC50: 4.40

// switching to the query compound
Exam item: Which pEC50 value is on record for COC(=O)/C=C/[C@H](CCC(N)=O)NC(=O)[C@H](Cc1ccccc1)NC(=O)[C@H](CC(C)C)NC(=O)OCc1ccccc1 ?
Marked response: 5.05

----------
Below is a list of entries, each paired with its recorded kobs/I value.
testSystem: Recombinant Rhinovirus 3C protease (RVP) serotype-14 (Human rhinovirus 14)
Construct: Recombinant Rhinovirus 3C proteases from serotypes 14, 16, 2 or 89; made in house
protocolSummary: Inhibition of Rhinovirus Protease (fluorescence resonance energy transfer assay), serotype 14
Type: biochemical, human rhinovirus (HRV)
conditionContext: RVP serotype-14; progress curves in enzyme start experiments

Please review the entries below; each comes with its answer.
molecule: CCOC(=O)/C=C/[C@H](CNC(C)=O)NC(=O)[C@H](Cc1ccccc1)NC(=O)[C@H](CC(C)C)NC(=O)OCc1ccccc1 [Compound 4]
kobs/I: 790 M⁻¹ s⁻¹
//
molecule: CC(C)C[C@H](NC(=O)OCc1ccccc1)C(=O)N[C@@H](Cc1ccccc1)C(=O)N[C@H](/C=C/C(=O)c1ccc(C#N)cc1)CCC(N)=O [Compound 80]
kobs/I: 200,000 M-1 sec-1
//
molecule: CC(C)C[C@H](NC(=O)OCc1ccccc1)C(=O)N[C@@H](Cc1ccccc1)C(=O)N[C@H](/C=C/C(=O)c1ccc2c(c1)OCO2)CCC(N)=O [Compound 46]
kobs/I: 120,000 M-1 sec-1
//
molecule: CCOC(=O)/C=C/[C@H](COC(=O)NC(=O)CCl)NC(=O)[C@H](Cc1ccccc1)NC(=O)[C@H](CC(C)C)NC(=O)OCc1ccccc1 [Compound 122]
kobs/I: 1,252 M-1 sec-1
//
molecule: CCOC(=O)/C=C/[C@H](CCC(N)=O)NC(=O)[C@H](Cc1ccc(F)cc1)NC(=O)[C@H](CC(C)C)NC(=O)OCc1ccccc1 [Compound 35]
kobs/I: 46,388 M-1 sec-1

// switching to the query molecule
Exam item: Which kobs/I value is on record for CC(C)C[C@H](NC(=O)OCc1ccccc1)C(=O)N[C@@H](Cc1ccccc1)C(=O)N[C@H](/C=C/C=O)CCC(N)=O [Compound 81] ?
Marked response: 124,000 M-1 sec-1

----------
testSystem: Recombinant Rhinovirus 3C protease (RVP) serotype-14 (Human rhinovirus 14)
Construct: Recombinant Rhinovirus 3C proteases from serotypes 14, 16, 2 or 89; made in house
protocolSummary: Inhibition of Rhinovirus Protease (fluorescence resonance energy transfer assay), serotype 14
Type: biochemical, human rhinovirus (HRV)
conditionContext: pH 7.6, read-out: kobs/I
Consider the following partition of reported kinact/KI into named classes: LOW (below 2000 M⁻¹ s⁻¹), MID (2000 M⁻¹ s⁻¹ to below 40000 M⁻¹ s⁻¹), HIGH (40000 M⁻¹ s⁻¹ or more)

compound: COCCOC(=O)/C=C/[C@H](CCC(N)=O)NC(=O)[C@H](Cc1ccc(C)cc1)NC(=O)[C@@H](NC(=O)SC1CCCC1)C(C)(C)C
assignedCategory: HIGH

Exam item: The entry to classify is CCOC(=O)/C=C/[C@H](CCC(N)=O)NC(=O)[C@H](Cc1ccccc1)NC(=O)[C@H](CC(C)C)NC(=O)CSc1ccccn1 ; which class holds it?
Marked response: LOW

Exam item: What do you have for CCOC(=O)C=CC(CCC(N)=O)NC(=O)C(Cc1ccccc1)NC(=O)C(CCc1ccccc1)NC(=O)OCc1ccccc1 (stereo not drawn) ?
Marked response: HIGH

Exam item: What do you have for CC(C)C[C@H](NC(=O)OCc1ccccc1)C(=O)N[C@@H](Cc1ccccc1)C(=O)N[C@H](/C=C/C(=O)N1CCCC1)CCC(N)=O ?
Marked response: MID

----------
Test system: HI-HeLa cells
protocolSummary: Cytotoxicity in mock-infected HI-HeLa cells (antirhinoviral assay, XTT)
Assay type: cell-based
measuredParameter: CC50

Please review the entries below; each comes with its answer.
mol: C/C(=C\[C@H](CCC(N)=O)NC(=O)[C@H](Cc1ccccc1)NC(=O)[C@H](CC(C)C)NC(=O)OCc1ccccc1)C(=O)O
CC50: > 320 µM

mol: CC(C)C[C@H](NC(=O)OCc1ccccc1)C(=O)N[C@@H](Cc1ccccc1)C(=O)N[C@H](/C=C/C(=O)N1CCCC1=O)CCC(N)=O
CC50: 56 µM

mol: CCOC(=O)/C=C/[C@H](COC(=O)NC(=O)CCl)NC(=O)[C@H](Cc1ccccc1)NC(=O)[C@H](CC(C)C)NC(=O)OCc1ccccc1
CC50: 10 µM

mol: CCOC(=O)/C=C/[C@H](CCC(N)=O)NC(=O)[C@H](Cc1ccccc1)NC(=O)[C@H](CC(C)C)NC(=O)OC
CC50: > 320 µM

mol: CCOC(=O)/C=C/[C@H](CCC(N)=O)NC(=O)[C@H](Cc1ccccc1)NC(=O)[C@H](CO)NC(=O)OCc1ccccc1
CC50: > 320 µM

mol: CCOC(=O)/C=C/[C@H](CCC(N)=O)NC(=O)[C@H](CC)NC(=O)[C@H](CC(C)C)NC(=O)OCc1ccccc1
CC50: > 320 µM

mol: CC(C)C[C@H](NC(=O)OCc1ccccc1)C(=O)N[C@@H](Cc1ccccc1)C(=O)N[C@H](/C=C/S(C)(=O)=O)CCC(N)=O
CC50: > 320 µM

mol: CCOC(=O)/C=C/[C@H](CCC(N)=O)NC(=O)[C@H](Cc1ccccc1)NS(=O)(=O)CC
CC50: > 100 µM

Exam item: Which CC50 value is on record for CCOC(=O)/C=C/[C@H](CCC(N)=O)NC(=O)[C@H](Cc1ccc(OC)cc1)NC(=O)[C@H](CC(C)C)NC(=O)OCc1ccccc1 ?
Marked response: > 320 µM

Exam item: What do you have for CCC[C@H](NC(=O)[C@H](CC(C)C)NC(=O)OCc1ccccc1)C(=O)N[C@H](/C=C/C(=O)OCC)CCC(N)=O ?
Marked response: > 320 µM

Exam item: What do you have for CCOC(=O)/C=C/[C@H](CCC(N)=O)NC(=O)[C@H](Cc1ccc(OCC)cc1)NC(=O)[C@H](CC(C)C)NC(=O)OCc1ccccc1 ?
Marked response: > 320 µM

Exam item: What do you have for CC(C)C[C@H](NC(=O)OCc1ccccc1)C(=O)N[C@@H](Cc1ccccc1)C(=O)N[C@H](/C=C/C(=O)c1ccco1)CCC(N)=O ?
Marked response: 19.1 µM

Exam item: What do you have for CCOC(=O)/C=C/[C@H](CCC(N)=O)NC(=O)[C@H](Cc1ccc(COC)cc1)NC(=O)[C@H](CC(C)C)NC(=O)OCc1ccccc1 ?
Marked response: > 320 µM

----------
protocolSummary: Cytotoxicity in mock-infected HI-HeLa cells (antirhinoviral assay, XTT)
Assay type: cell-based
conditionContext: human; mock-infected HI-HeLa cells; two days; XTT; read-out: CC50
Below is a list of entries, each paired with its recorded CC50 at 2 days value.

Please review the entries below; each comes with its answer.
compound: CC(C)C[C@H](NC(=O)OCc1ccccc1)C(=O)N[C@@H](Cc1ccccc1)C(=O)N[C@H](/C=C/C(=O)N1CCc2cc(F)ccc21)CCC(N)=O
result: > 320 µM

compound: COC(=O)/C=C\[C@H](CCC(N)=O)NC(=O)[C@H](Cc1ccccc1)NC(=O)[C@H](CC(C)C)NC(=O)OCc1ccccc1
result: > 320 µM

compound: CC(C)CC(NC(=O)OCc1ccccc1)C(=O)NC(Cc1ccccc1)C(=O)NC(C=Cc1ccccc1C#N)CCC(N)=O (stereo not shown)
result: > 320 µM

compound: CC(C)C[C@H](NC(=O)OCc1ccccc1)C(=O)N[C@@H](Cc1ccccc1)C(=O)N[C@H](/C=C/C(=O)OC1CCCCC1)CCC(N)=O
result: > 100 µM

compound: CCOC(=O)/C=C/[C@H](CCC(N)=O)NC(=O)[C@H](Cc1ccccc1)NC(=O)[C@@H](NC(=O)OCc1ccccc1)C(C)(C)C
result: 178 µM

compound: COc1cccc2[nH]c(C(=O)NC(Cc3ccc(F)cc3)C(=O)NC(/C=C/C(=O)O)CCC(N)=O)cc12 (stereo not shown)
result: > 100 µM

compound: CCOC(=O)C=CC(CCC(N)=O)NC(=O)C(Cc1ccc(C)cc1)NC(=O)C(CC(C)C)NC(=O)OCc1ccccc1 (stereo not shown)
result: > 320 µM

compound: CCOC(=O)/C=C/[C@H](CCC(N)=O)NC(=O)[C@H](Cc1ccccc1)NC(=O)[C@H](CC(C)C)NC(=O)CSc1ccccn1
result: > 320 µM

Exam item: Which CC50 at 2 days value is on record for CCOC(=O)/C=C/[C@H](CCC(N)=O)NC(=O)[C@H](Cc1ccccc1)NC(=O)[C@H](CC(C)C)NC(=O)c1ccc(Oc2ccccc2)cc1 ?
Marked response: > 320 µM

Exam item: What do you have for CCOC(=O)C=CC(CCC(N)=O)NC(=O)C(Cc1ccccc1)NC(=O)C(CCc1ccccc1)NC(=O)OCc1ccccc1 (stereo not shown) ?
Marked response: > 320 µM

Exam item: What do you have for CC(C)C[C@H](NC(=O)OCc1ccccc1)C(=O)N[C@@H](Cc1ccccc1)C(=O)N[C@H](/C=C/C(=O)N1CCc2ccccc21)CCC(N)=O ?
Marked response: > 320 µM

Exam item: What do you have for CC(=O)OCC=CC(CCC(N)=O)NC(=O)C(Cc1ccccc1)NC(=O)C(CC(C)C)NC(=O)OCc1ccccc1 (stereo not shown) ?
Marked response: > 320 µM

Exam item: What do you have for CC(C)C[C@H](NC(=O)OCc1ccccc1)C(=O)N[C@@H](Cc1ccccc1)C(=O)N[C@H](/C=C/C(=O)N(C)O)CCC(N)=O ?
Marked response: 41.7 µM

Exam item: What do you have for CCOC(=O)/C=C/C(CCC(N)=O)NC(=O)C(Cc1ccccc1)NC(=O)C(CC(C)C)NC(=O)c1ccc2ccccc2c1 (stereo not shown) ?
Marked response: > 320 µM

Exam item: What do you have for CCOC(=O)/C=C/[C@H](CCC(N)=O)NC(=O)[C@H](Cc1ccccc1)NC(=O)[C@H](CC(C)C)NC(C)=O ?
Marked response: > 320 µM

Exam item: What do you have for CCOC(=O)/C=C/[C@H](CC[S+](C)[O-])NC(=O)[C@H](Cc1ccccc1)NC(=O)[C@H](CC(C)C)NC(=O)OCc1ccccc1 (stereo partly shown) ?
Marked response: > 100 µM

Exam item: What do you have for CC(C)C[C@H](NC(=O)OCc1ccccc1)C(=O)N[C@@H](Cc1ccccc1)C(=O)N[C@H](/C=C/C(=O)N1CCCC1)CCC(N)=O ?
Marked response: > 100 µM

Exam item: What do you have for CC(C)C[C@H](NC(=O)OCc1ccccc1)C(=O)N[C@@H](Cc1ccccc1)C(=O)N[C@H](/C=C/c1nccn1C)CCC(N)=O ?
Marked response: > 320 µM

Exam item: What do you have for CCOC(=O)/C=C/[C@H](CCC(N)=O)NC(=O)[C@H](Cc1ccccc1)NC(=O)[C@H](CC(C)C)NC(=O)SCC ?
Marked response: > 320 µM

Exam item: What do you have for CC(C)C[C@H](NC(=O)OCc1ccccc1)C(=O)N[C@@H](Cc1ccccc1)C(=O)N[C@H](/C=C/C(=O)N1CCc2cccc(Cl)c21)CCC(N)=O ?
Marked response: > 320 µM
